The values you see were collected from PubChem BioAssay (NCI).

- Tested on: LOX IMVI melanoma
- EXPERIMENT_SUMMARY: NCI tumour cell line growth inhibition, 48 h
The following compounds are shown together with reported GI50 values.

Check out these entries, answers already filled in.
COMPOUND	SUBJECT_OF_TEST	GI50
CC(=O)Nc1ccc(/C=C/C(=O)c2sc(-n3nc(-c4ccccc4)cc3-c3ccccc3)nc2C)cc1	LOX IMVI melanoma	> 100000 nM
CC1(C)CCC(c2ccc(Cl)cc2)=C(CN2CCN(c3ccc(C(=O)NS(=O)(=O)c4ccc(N[C@H](CCN5CCOCC5)CSc5ccccc5)c(S(=O)(=O)C(F)(F)F)c4)cc3)CC2)C1	LOX IMVI melanoma	1400 nM
CC1SC(c2ccc(OCc3ccccc3)cc2)N(NC(=O)C(O)(c2ccccc2)c2ccccc2)C1=O (stereo not given)	LOX IMVI melanoma	3870 nM
COc1cc(F)c(F)c(F)c1C(=O)c1cnc(NC2CCN(S(C)(=O)=O)CC2)nc1N	LOX IMVI melanoma	1040 nM
COC(=O)[C@@H](C)C[C@H](Cc1ccccc1)NC(=O)c1nc([C@@H](C[C@H](C(C)C)N(C)C(=O)[C@@H](NC(=O)[C@H]2CC(=O)CCN2C)C(C)C)OC(C)=O)sc1C(C)C	LOX IMVI melanoma	110 nM

// query Please look at this compound and report its GI50: `CCN(CC)c1ccc(C=C2C(=O)NC(=S)NC2=O)cc1`
// result 2120 nM

====

Documented GI50 across a set of compounds
- Tested on: 786-0 renal
- EXPERIMENT_SUMMARY: NCI tumour cell line growth inhibition, 48 h

// query Dear colleague, please send me the reported GI50 for `CC(C)CC(=O)O[C@H]1C(=O)O[C@@H]2C[C@H]3[C@H](C)C(=O)C(O[C@@H]4O[C@H](CO)[C@@H](O)[C@H](O)[C@H]4O)=C[C@]3(C)[C@H]3[C@@H](O)[C@H](O)[C@]4(C(=O)O)OC[C@]32[C@@H]14` when you can.
// result > 100 µM

// query Let me know recorded GI50 for CCN(CC)CCCC(C)Nc1ccnc2cc(OC)ccc12 (stereo not given) , thanks.
// result 17.1 µM

// query Return reported GI50. Input compound: `CC[C@@]12CC(C(=O)OC)=C3Nc4ccccc4[C@@]34CCN(C[C@H]3O[C@H]31)[C@@H]24`
// result > 100 µM

// query Return the recorded GI50 value; entry: `CCc1ccc2cc3c(ccc4ccccc43)c3c2c1CC3`
// result > 100 µM

// query Output GI50 of `O=c1c2cc(F)ccc2sc2c(NCCCNCCO)nc3ccc(F)cc3c12`
// result 1.63 µM

====

- Tested on: SW-620 colon
- EXPERIMENT_SUMMARY: NCI tumour cell line growth inhibition, 48 h
PROPERTY_LABEL: TGI

Below are worked cases with known answers.
MOLECULE	TGI
COc1ccccc1Nc1nc(N)nc(N)c1N	72 µM
Cn1c2ccccc2n2c3ccccc3c3nnc(N)c-3c12	> 100 µM
CCOC(=O)c1nc2ccccc2nc1Oc1ccc(F)cc1	> 100 µM

// query State, for SW-620 colon, measured TGI of the molecule listed here: `C/C(=C\COP(=O)(O)CP(=O)(O)O)CC/C=C(\C)CNc1ccccc1`
// result > 100 µM

// query Answer briefly: TGI recorded on SW-620 colon for Nc1ncnc2c1ncn2C1SC(CO)C(O)C1O (configuration not stated)
// result 77.2 µM

// query Under SW-620 colon, report TGI for `O=c1oc2cc(O)ccc2c(O)c1C(c1ccc(/C=C/c2ccccc2)cc1)c1c(O)c2ccc(O)cc2oc1=O`
// result > 100 µM
